List of IC50 values.
# SYSTEM: c-Met (Homo sapiens, UniProt P08581)
# Construct: Kinases are expressed as either kinase domains or full length constructs; made in house
# Sequence (P08581 25-1390): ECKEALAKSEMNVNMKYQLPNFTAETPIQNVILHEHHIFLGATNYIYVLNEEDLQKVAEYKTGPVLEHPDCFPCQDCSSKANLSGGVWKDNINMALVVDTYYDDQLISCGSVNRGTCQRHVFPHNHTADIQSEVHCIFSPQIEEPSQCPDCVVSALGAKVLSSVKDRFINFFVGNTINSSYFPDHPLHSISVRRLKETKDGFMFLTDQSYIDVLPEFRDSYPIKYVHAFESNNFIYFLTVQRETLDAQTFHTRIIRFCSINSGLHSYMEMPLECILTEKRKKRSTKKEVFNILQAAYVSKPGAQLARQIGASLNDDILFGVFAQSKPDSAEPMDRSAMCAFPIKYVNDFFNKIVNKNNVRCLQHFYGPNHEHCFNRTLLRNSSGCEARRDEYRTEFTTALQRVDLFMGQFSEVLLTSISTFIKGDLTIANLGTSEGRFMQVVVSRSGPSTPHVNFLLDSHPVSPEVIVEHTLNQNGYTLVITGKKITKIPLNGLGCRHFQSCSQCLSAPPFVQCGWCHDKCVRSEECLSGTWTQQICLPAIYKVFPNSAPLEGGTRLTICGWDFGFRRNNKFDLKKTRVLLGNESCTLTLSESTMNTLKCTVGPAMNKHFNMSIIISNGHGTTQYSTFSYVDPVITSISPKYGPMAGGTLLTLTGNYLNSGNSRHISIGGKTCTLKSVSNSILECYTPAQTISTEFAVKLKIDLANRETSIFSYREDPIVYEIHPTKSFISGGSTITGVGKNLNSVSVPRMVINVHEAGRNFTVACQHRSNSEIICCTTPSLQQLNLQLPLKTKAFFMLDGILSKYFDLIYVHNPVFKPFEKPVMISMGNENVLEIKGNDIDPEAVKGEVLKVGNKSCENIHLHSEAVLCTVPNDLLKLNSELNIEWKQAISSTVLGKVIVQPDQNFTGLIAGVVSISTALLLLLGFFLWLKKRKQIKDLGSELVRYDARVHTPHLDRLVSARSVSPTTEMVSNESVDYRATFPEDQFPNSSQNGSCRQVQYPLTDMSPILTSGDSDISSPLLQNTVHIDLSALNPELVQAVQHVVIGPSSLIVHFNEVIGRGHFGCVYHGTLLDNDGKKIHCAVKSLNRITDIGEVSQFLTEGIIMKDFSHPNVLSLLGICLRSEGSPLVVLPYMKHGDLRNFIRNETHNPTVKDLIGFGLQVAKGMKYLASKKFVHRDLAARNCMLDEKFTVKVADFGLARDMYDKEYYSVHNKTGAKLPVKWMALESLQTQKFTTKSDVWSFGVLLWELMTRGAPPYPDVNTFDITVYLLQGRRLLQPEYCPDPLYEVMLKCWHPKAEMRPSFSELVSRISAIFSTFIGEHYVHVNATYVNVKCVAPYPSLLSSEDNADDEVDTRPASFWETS
# PROTOCOL_NOTES: Kinase inhibition assay (33P transfer), c-Met
# Format: biochemical
# REPORTED_CONDITIONS: Table 2, kinase inhibition class; read-out: Met-1

Here is how some compounds turned out for IC50.
Reported IC50, compound COc1cccc(-c2ncnc(Nc3cc(OC)c(OC)c(OC)c3)n2)c1 [Compound 232] : ____ > 12.2 µM

Reported IC50, compound CN(c1cccc(Cl)c1)c1ncnc(Nc2ccc(F)c(Cl)c2)n1 [Compound 703] : ____ > 12.4 µM

Reported IC50, compound O=C1OCc2ccc(Nc3ncnc(Nc4cc(-c5ccco5)n[nH]4)n3)cc21 [Compound 364] : ____ 1.07 to 6.39 µM

Reported IC50, compound CN(C)CCNc1ncnc(Nc2ccc3c(cnn3Cc3ccccc3)c2)n1 [Compound 733] : ____ > 11.6 µM

Reported IC50, compound COc1cc(Nc2ncnc(Nc3cccc(Oc4ccccc4)c3)n2)cc(OC)c1OC [Compound 105] : ____ 0.898 to 5.39 µM

Reported IC50, compound COc1cc(Nc2ncnc(Nc3cccc(C(F)(F)F)c3)n2)cc(OC)c1OC [Compound 614] : ____ > 10.7 µM

Reported IC50, compound O=c1[nH]c2ccccc2n1-c1ncnc(Nc2ccncn2)n1 [Compound 492] : ____ 7.84 to 11.4 µM

Reported IC50, compound Cc1cccc(Nc2ncnc(Nc3ccc4[nH]ccc4c3)n2)c1 [Compound 110] : ____ 11.1 to 14.2 µM

# next compound below
Reported IC50, compound COC(=O)c1ccc(-c2cc(Nc3ncnc(Nc4cccc(C(N)=O)c4)n3)[nH]n2)cc1 [Compound 990] : ____ 5.58 to 8.13 µM
